Reference for the values: the supplement of paper PMC9170038

Tested on: MS2 coat protein
Assay: apparent KD of MS2 coat protein, switch ON state; designed switch direction (-1 OFF switch, 1 ON switch): -1; higher = weaker reporter binding
Settings: FMN input: 0 or 200 uM; Eterna round: R93 (includes R88 designs)
Result type: apparent KD of MS2 coat protein (µM)
Expressed in µM, but write only the number.

Please review the following examples before continuing.
[
  {
    "Biopolymer sequence": "CCCAUGUCAGGAUAUCAGUAGUAAAAAAAAAAAAUUACUACUGAGAAGGGACAUGAGGAUCACCCAUGUCAAAA [EX4 315: Super Stable 15]",
    "Experimental target": "MS2 coat protein",
    "Units of measure": "µM",
    "apparent KD of MS2 coat protein": 0.0802
  },
  {
    "Biopolymer sequence": "AAAGGAUCAGGAUAUGUGUGGAAAAAGUGUGUCCAAAAAAAACAUGAGGAUCACCCAUGUAGAAGGGAUCCAAA [Mod 4 of Normal (20/19) by Nando, Round 1]",
    "Experimental target": "MS2 coat protein",
    "Units of measure": "µM",
    "apparent KD of MS2 coat protein": 0.222
  },
  {
    "Biopolymer sequence": "GGGAUGUCAGGAUAUGUGUAAAGAAUAAAACAAAUAACAACACAGAAGGGACAUGAGGAUCACCCAUGUUACCC [May 39]",
    "Experimental target": "MS2 coat protein",
    "Units of measure": "µM",
    "apparent KD of MS2 coat protein": 0.017
  },
  {
    "Biopolymer sequence": "GCUUGGGAAGGAUAUACAUGAGGAUCACCCAUGUGAGAGAAAAAAGUGAGAAAGAAAAGUAGAAGGUCCUGAGG [salish99-ex3-108]",
    "Experimental target": "MS2 coat protein",
    "Units of measure": "µM",
    "apparent KD of MS2 coat protein": 0.0712
  },
  {
    "Biopolymer sequence": "AGUUGGCGAGGAUAUACAUGAGGAUCACCCAUGUGAUAGAAAAAAGUGAGAAAGAAAAGUAGAAGGCGCUGACA [Mat - Exclusion 3 - Lego mod - D92]",
    "Experimental target": "MS2 coat protein",
    "Units of measure": "µM",
    "apparent KD of MS2 coat protein": 0.0699
  }
]

Exercise: Item under review: AAAAAACAUGAGGAUCACCCAUGUCAGGAUAUCGUGCAGAAAAAAAAAAAAAACUGCACGAGAAGGGACAUGAA [Mod of jnicol] . Reported apparent KD of MS2 coat protein?
Key: 0.042

----------
System: MS2 coat protein
Assay: apparent KD of MS2 coat protein; designed switch direction (-1 OFF switch, 1 ON switch): -1; higher = weaker reporter binding
Conditions: input ligand: none
The reader will find reported apparent KD of MS2 coat protein values listed item by item below.
Give the value in nM but do not write nM after it.

These recorded examples may help you get a feel for the data.
[
  {
    "Biopolymer sequence": "UUGUAGGGAGGAUAUCAGAAGCUCCACAUGAGGAUCACCCAUGUAGCCGCUGCUGGAUUCUGAGAAGGCUUGGGUU [Eternabot (L2) Solution 8] (Eterna round: R97, puzzle: Exclusion 5)",
    "apparent KD of MS2 coat protein, nM": 58.3
  },
  {
    "Biopolymer sequence": "CAGCUGAAUGUGAGGAUAUGUCGAGCUGCGGCUCGAUAGAAGGCACAUGAGGAUCACCCAUGUCUCAACAGCUG [BmEx4/2-C3] (Eterna round: R97, puzzle: Brourd's mod of Exclusion 4)",
    "apparent KD of MS2 coat protein, nM": 31.2
  },
  {
    "Biopolymer sequence": "GUUUGCACGCUGCGGUCCUACAUGAGGAUCACCCAUGUGGUCUGGUGGCGUGGGUCGCCGGACUUGGCUCGUCUUGG [salish99_S_TOV1_R5_039] (Eterna round: R97, puzzle: Sensor, turn-off variant 1)",
    "apparent KD of MS2 coat protein, nM": 14.8
  },
  {
    "Biopolymer sequence": "ACAUGUUAUCCAUGAUAUCACAUGAGGAUCACCCAUGUUAAGGCGAUUUUGAGGUGUAAGCUUUGUGCUCGACUUAU [JR_STOV1_Sub055] (Eterna round: R97, puzzle: Sensor, turn-off variant 1)",
    "apparent KD of MS2 coat protein, nM": 78.8
  }
]

Please look at the following sequence next.
Exercise: Which apparent KD of MS2 coat protein reading was recorded for the sequence AAACGGCAGGGAGGAUAUGCUUACCUGGGUCGUCUUCAGACAUGAGGAUCACCCAUGUAGUCGACGCAGAAGGCCCUCAAAGCC [JL ViennaUCT Ontiis mod 3] (Eterna round: R96, puzzle: Exclusion NG 2) ?
Key: 51.1

----------
Tested on: MS2 coat protein
Assay: apparent KD of MS2 coat protein; designed switch direction (-1 OFF switch, 1 ON switch): 1; higher = weaker reporter binding
Details: input ligand: microRNA oligo, concentration not stated
Overview of recorded apparent KD of MS2 coat protein for various sequences
Quote the value and follow it with the unit of measurement.

# annotated cases, reported apparent KD of MS2 coat protein shown
[
  {
    "Biopolymer sequence": "GGCACAGCGUGAGGAUAUCGGUACGCACGUAGUCGAGAAGGUACCUGAAAUGGUACACAUGAGGAUCACCCAUGUGACUGGGCA [Eternabot solution 14] (Eterna round: R96, puzzle: Same State NG 1)",
    "apparent KD of MS2 coat protein": "27.1 nM"
  },
  {
    "Biopolymer sequence": "GUGGUCAGACAUGAGGAUCACCCAUGUGGAAUAAAUAAGGAUUAGGAUAUGGAAUAUAGGAUAUACCAGAAGGAAUGGUUGGUG (Eterna round: R96, puzzle: Same State NG 3)",
    "apparent KD of MS2 coat protein": "75.8 nM"
  },
  {
    "Biopolymer sequence": "UGUUGUAUUACAGGAUAUCUAUUGUUUUUAUAUAGAGAAGGGUAUUCACAUGAGGAUCACCCAUGUAUAUACGAGGAAGUUGUG [JMF's solution 84] (Eterna round: R96, puzzle: Same State NG 1)",
    "apparent KD of MS2 coat protein": "33.2 nM"
  }
]

Exercise: For the sequence shown here, GGUGCCAAAUAAGCCUACAUGAGGAUCACCCAUGUAUGUAGGUAGGAUAUCGUAUGCAAAGCAUACGAGAAGGGCCUAGGCACC [Mat - Same State NG 3 - JL Mod - D60] (Eterna round: R96, puzzle: Same State NG 3) , give the reported apparent KD of MS2 coat protein.
Key: 37.3 nM

Exercise: Please give the measured apparent KD of MS2 coat protein for this sequence: UGUUGUAUUACAGGAUAUCUAGUAUUUUUAUUAAGAGAAGGGUAUUCACAUGAGGAUCACCCAUGUAUAUACGAGGAAGUUGUG [JMF's solution 54] (Eterna round: R96, puzzle: Same State NG 1)
Key: 33.7 nM

Exercise: # apparent KD of MS2 coat protein lookup, item GUGGUCAGACAUGAGGAUCACCCAUGUGGAAUAAAUAAGGAGAAGGAUAUUGAAUAUAGGAUAUACAAGAAGGUCUGGUUGGUG (Eterna round: R96, puzzle: Same State NG 3)
Key: 71.3 nM

Exercise: Report apparent KD of MS2 coat protein for GACCGCGAGGAAGGAUAUGGAGCCUUAUUGGCUCCAGAAGGUCCAUAAAGGACAUGAGGAUCACCCAUGUGGUGUGAAGCGGUC [Fiskers NG1ss - 18] (Eterna round: R96, puzzle: Same State NG 1) please.
Key: 407 nM

Exercise: I would be grateful if you could share the reported apparent KD of MS2 coat protein for UUGGGUUUGCGAGGAUAUCGUUUGUGAUUUGAUCGAGAAGGCGCUAUUUAAAUUAUUUUAACAUUACAUGAGGAUCACCCAUGU [JR_SSNG1_Sub022] (Eterna round: R96, puzzle: Same State NG 1) .
Key: 14.8 nM

Exercise: Returns the measured apparent KD of MS2 coat protein for the input sequence. Input: GCUCGUAUGAUGACCGACAUGAGGAUCACCCAUGUAUGUUGGUAGGAUAUCUAUAUUAAGGAUAUAGAGAAGGGCCGAACGAGC [SameState NG3 #15] (Eterna round: R96, puzzle: Same State NG 3)
Key: 33.6 nM

----------
Test system: MS2 coat protein
Experiment: apparent KD of MS2 coat protein; designed switch direction (-1 OFF switch, 1 ON switch): -1; higher = weaker reporter binding
Conditions: input ligand: none
# apparent KD of MS2 coat protein per entry
Write down the numeric answer in nM and omit the unit.

[
  {
    "Biopolymer sequence": "UAAAGUGAGUCCUCGCAGCAGCGUAGGGCGGUGCUAGCUACAUGAGGAUCACCCAUGUUUUCGCUCGUCCAGCACCU [Ceaorreti] (Eterna round: R96, puzzle: Sensor v2, turn-off variant 2)",
    "Quantitative readout": 101
  }
]

Exercise: Item under review: GUAAACGUAUAGGAUAUUUCAGGUCAAAGCUGCAAAGAAGGAUACACAUGAGGAUCACCCAUGUGGUCAAUAAA [Mod of Quesina 23 - Jieux - Exclusion 6] (Eterna round: R97, puzzle: Exclusion 6) . Reported apparent KD of MS2 coat protein?
Key: 20.4

Exercise: Value lookup for apparent KD of MS2 coat protein; key = ACCUCACUUGAGGAUCACCCAAGUCAGGAUAUACUCGUUUGCCGCGCGACGCGGCAUUGUAGAAGGGACGGGCU [Orquisates] (Eterna round: R97, puzzle: Exclusion 1)
Key: 18.8

Exercise: Item CAUGUCUGAGGAUAUCGUUUUUUGUACAUGAGGAUCACCCAUGUCCUAUUUUUUAUAUUACGAGAAGGCAGUGGAU [JR_E5_Sub091] (Eterna round: R96, puzzle: Exclusion 5) has what recorded apparent KD of MS2 coat protein?
Key: 39.2

Exercise: May I ask what apparent KD of MS2 coat protein has been recorded for CUGCUGAAGCUUUGCUUUAGUCGUACAUGAGGAUCACCCAUGUAGGAUAUGGUAGGCUUUGCUUACUAGAAGGAUAGAGUGAUC [salish99_ExNG3_r04_604] (Eterna round: R96, puzzle: Exclusion NG 3) ?
Key: 61.9
